This collection of values is drawn from ChEMBL document CHEMBL4680186.

# Test system: Mucor circinelloides
# EXPERIMENT DESCRIPTION: Antifungal activity against Mucor circinelloides MURI1 assessed as reduction in microbial growth after 24 hrs by broth microdilution method
# Type: functional
MEASUREMENT NAME: MIC (µg/mL)

compound="C[C@@H](c1ncncc1F)[C@](O)(Cn1cncn1)c1ccc(F)cc1F [VORICONAZOLE]" experimental_system="Mucor circinelloides" relation_symbol=> value_measured=8
compound="CC[C@@H]([C@H](C)O)n1ncn(-c2ccc(N3CCN(c4ccc(OC[C@@H]5CO[C@@](Cn6cncn6)(c6ccc(F)cc6F)C5)cc4)CC3)cc2)c1=O [POSACONAZOLE]" experimental_system="Mucor circinelloides" relation_symbol== value_measured=0.19
compound=COc1ccc(-c2cc3cnn([C@H](C)[C@](O)(Cn4cncn4)c4ccc(F)cc4F)c(=O)n3c2)cc1 experimental_system="Mucor circinelloides" relation_symbol== value_measured=0.19
compound="CCC(C)n1ncn(-c2ccc(N3CCN(c4ccc(OCC5COC(Cn6cncn6)(c6ccc(Cl)cc6Cl)O5)cc4)CC3)cc2)c1=O (centres undefined) [ITRACONAZOLE]" experimental_system="Mucor circinelloides" relation_symbol== value_measured=0.19
compound=C[C@@H](n1ncc2cc(Br)cn2c1=O)[C@](O)(Cn1cncn1)c1ccc(F)cc1F experimental_system="Mucor circinelloides" relation_symbol== value_measured=8
compound=C[C@@H](n1ncc2cccn2c1=O)[C@](O)(Cn1cncn1)c1ccc(F)cc1F experimental_system="Mucor circinelloides" relation_symbol== value_measured=16
compound=C[C@@H](n1ncc2cc(-c3ccc([N+](=O)[O-])cc3)cn2c1=O)[C@](O)(Cn1cncn1)c1ccc(F)cc1F experimental_system="Mucor circinelloides" relation_symbol== value_measured=0.25
compound="C[C@@H]1[C@H](O)[C@@H](C)/C=C/C=C/C=C/C=C/C=C/C=C/C=C/[C@H](O[C@@H]2O[C@H](C)[C@@H](O)[C@H](N)[C@@H]2O)C[C@@H]2O[C@](O)(C[C@@H](O)C[C@@H](O)[C@H](O)CC[C@@H](O)C[C@@H](O)CC(=O)O[C@H]1C)C[C@H](O)[C@H]2C(=O)O [AMPHOTERICIN B]" experimental_system="Mucor circinelloides" relation_symbol== value_measured=0.19
compound=C[C@@H](n1ncc2cc(-c3ccc(C#N)cc3)cn2c1=O)[C@](O)(Cn1cncn1)c1ccc(F)cc1F experimental_system="Mucor circinelloides" relation_symbol== value_measured=0.75
